Data provenance: patent US20210309732A1

molecular target: T1, recombinant human GM-CSF (human, UniProt P04141 18-144); assay: ELISA on coated rhGM-CSF, UBA relative to 1D2
T1 construct: also called rhGM-CSF; CSF2
T1 sequence (P04141 18-144 limits assumed): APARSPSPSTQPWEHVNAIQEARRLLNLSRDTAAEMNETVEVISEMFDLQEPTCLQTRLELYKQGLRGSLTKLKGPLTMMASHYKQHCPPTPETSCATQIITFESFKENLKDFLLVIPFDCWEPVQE
readout.label: binding affinity % of 1D2 (%)
Unit % implied. Number only.

binder	measurement.units	binding affinity % of 1D2
1D2 SDR mutant HR100P (antibody, IgG1, V domains shown, also called X4 P) VH: QVQLVQSGAEVKKPGASVKVSCEASGYTFTDKYLHWVRQAPGQGLEWMAWINPKSGGTFYAQNFKGRVTVTRDTSINTAYLELTSLRLDDTSTYYCARGPDYYDQGAADLWGQGTMVTVSS VL: DIQLTQSPSSLSASVGDRVTITCRASQGINSVLAWYQQKPGKAPKLLLYAASKLESGVPSRFSGSGSGTDYTLTISSLQPEDFGTYYCQQYYSPVRTFGQGTKVEIKR	%	101
1D2 SDR mutant HR100T (antibody, IgG1, V domains shown, also called X4 T) VH: QVQLVQSGAEVKKPGASVKVSCEASGYTFTDKYLHWVRQAPGQGLEWMAWINPKSGGTFYAQNFKGRVTVTRDTSINTAYLELTSLRLDDTSTYYCARGTDYYDQGAADLWGQGTMVTVSS VL: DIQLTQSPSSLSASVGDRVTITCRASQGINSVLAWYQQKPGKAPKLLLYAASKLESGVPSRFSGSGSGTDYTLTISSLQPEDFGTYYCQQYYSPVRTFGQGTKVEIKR	%	93
1D2 SDR mutant HQ105V (antibody, IgG1, V domains shown, also called X7 V) VH: QVQLVQSGAEVKKPGASVKVSCEASGYTFTDKYLHWVRQAPGQGLEWMAWINPKSGGTFYAQNFKGRVTVTRDTSINTAYLELTSLRLDDTSTYYCARGRDYYDVGAADLWGQGTMVTVSS VL: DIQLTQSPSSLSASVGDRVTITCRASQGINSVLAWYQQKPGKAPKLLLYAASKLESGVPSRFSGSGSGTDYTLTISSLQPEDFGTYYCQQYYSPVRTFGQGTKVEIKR	%	155
1D2 SDR mutant HK32A (antibody, IgG1, V domains shown, also called X2 A) VH: QVQLVQSGAEVKKPGASVKVSCEASGYTFTDAYLHWVRQAPGQGLEWMAWINPKSGGTFYAQNFKGRVTVTRDTSINTAYLELTSLRLDDTSTYYCARGRDYYDQGAADLWGQGTMVTVSS VL: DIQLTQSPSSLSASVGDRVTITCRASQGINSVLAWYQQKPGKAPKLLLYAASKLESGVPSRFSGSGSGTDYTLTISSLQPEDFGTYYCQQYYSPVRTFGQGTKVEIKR	%	61
1D2 SDR mutant HD31T (antibody, IgG1, V domains shown, also called X1 T) VH: QVQLVQSGAEVKKPGASVKVSCEASGYTFTTKYLHWVRQAPGQGLEWMAWINPKSGGTFYAQNFKGRVTVTRDTSINTAYLELTSLRLDDTSTYYCARGRDYYDQGAADLWGQGTMVTVSS VL: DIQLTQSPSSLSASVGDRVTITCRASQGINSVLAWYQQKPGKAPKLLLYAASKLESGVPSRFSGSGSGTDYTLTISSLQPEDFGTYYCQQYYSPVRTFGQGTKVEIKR	%	44

Input 1D2 SDR mutant HK32Q (antibody, IgG1, V domains shown, also called X2 Q) VH: QVQLVQSGAEVKKPGASVKVSCEASGYTFTDQYLHWVRQAPGQGLEWMAWINPKSGGTFYAQNFKGRVTVTRDTSINTAYLELTSLRLDDTSTYYCARGRDYYDQGAADLWGQGTMVTVSS VL: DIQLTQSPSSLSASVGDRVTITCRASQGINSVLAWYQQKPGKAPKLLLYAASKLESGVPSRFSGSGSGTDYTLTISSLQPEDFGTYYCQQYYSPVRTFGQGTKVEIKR , output reported binding affinity % of 1D2.
91

Give binding affinity % of 1D2 for the following binder: 1D2 SDR mutant HY103A (antibody, IgG1, V domains shown, also called X6 A) VH: QVQLVQSGAEVKKPGASVKVSCEASGYTFTDKYLHWVRQAPGQGLEWMAWINPKSGGTFYAQNFKGRVTVTRDTSINTAYLELTSLRLDDTSTYYCARGRDYADQGAADLWGQGTMVTVSS VL: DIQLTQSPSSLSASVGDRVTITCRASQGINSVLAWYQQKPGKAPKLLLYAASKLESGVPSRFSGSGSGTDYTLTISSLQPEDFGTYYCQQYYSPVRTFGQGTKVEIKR
88

Answer with the recorded binding affinity % of 1D2 of 1D2 SDR mutant HK54M (antibody, IgG1, V domains shown, also called X3 M) VH: QVQLVQSGAEVKKPGASVKVSCEASGYTFTDKYLHWVRQAPGQGLEWMAWINPMSGGTFYAQNFKGRVTVTRDTSINTAYLELTSLRLDDTSTYYCARGRDYYDQGAADLWGQGTMVTVSS VL: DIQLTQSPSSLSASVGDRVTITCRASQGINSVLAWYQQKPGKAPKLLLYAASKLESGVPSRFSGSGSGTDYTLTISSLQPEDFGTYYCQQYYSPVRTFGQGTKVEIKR only.
106

Identify the reported binding affinity % of 1D2 for the following entry. 1D2 SDR mutant LV32Y (antibody, IgG1, V domains shown, also called X8 Y) VH: QVQLVQSGAEVKKPGASVKVSCEASGYTFTDKYLHWVRQAPGQGLEWMAWINPKSGGTFYAQNFKGRVTVTRDTSINTAYLELTSLRLDDTSTYYCARGRDYYDQGAADLWGQGTMVTVSS VL: DIQLTQSPSSLSASVGDRVTITCRASQGINSYLAWYQQKPGKAPKLLLYAASKLESGVPSRFSGSGSGTDYTLTISSLQPEDFGTYYCQQYYSPVRTFGQGTKVEIKR
114

Read off the recorded binding affinity % of 1D2 for 1D2 SDR mutant HK54N (antibody, IgG1, V domains shown, also called X3 N) VH: QVQLVQSGAEVKKPGASVKVSCEASGYTFTDKYLHWVRQAPGQGLEWMAWINPNSGGTFYAQNFKGRVTVTRDTSINTAYLELTSLRLDDTSTYYCARGRDYYDQGAADLWGQGTMVTVSS VL: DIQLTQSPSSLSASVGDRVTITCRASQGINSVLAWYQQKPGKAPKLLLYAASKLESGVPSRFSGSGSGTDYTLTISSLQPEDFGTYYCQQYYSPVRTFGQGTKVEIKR
73
